- subject of test: H3.3/H4 (human | X. laevis, UniProt P84243 1-136; P62799 1-103)
- procedure summary: ITC
property: Kd (µM)
Report as a plain number; the unit µM is understood.

Req: Recorded Kd for UBN1(92–175) (domain or fragment) NDEEKERHKVEALARKFEEKYGGKKRRKDRIQDLIDMGYGYDESDSFIDNSEAYDELVPASLTTKYGGFYINSGTLQFRQASES , please?
Resp: 6.9
